Experiment: protein stability index of a GFP-peptide fusion (yeast GPS) (PSI 1-4); higher = more stable; sorted into four equal gates, so the index is relative within each strain
Settings: doa10∆
Reported protein stability index values follow for various sequences

# MONOMER SEQUENCE, protein stability index
data = [
    ("ESLQKRELLKSQVEDFT [SIR3]", 3.15),
    ("QLDSDANKLSKSHSTVS [ISW2]", 3.04),
    ("HDELIDSIPRDVAYLLK [YGL172W/NUP49]", 2.49),
    ("AVCSTATVVSTNHSAAA [PGD1]", 2.85),
]

====

Assay: protein stability index of a GFP-peptide fusion (yeast GPS) (PSI 1-4); higher = more stable; sorted into four equal gates, so the index is relative within each strain
Conditions: doa10∆
The entries below are paired with their reported protein stability index.
REPORTED METRIC: protein stability index

# MONOMER SEQUENCE, MEASUREMENT
data = [
    ("FNFGGKSDTVTSASQPF [YOR098C/NUP1]", 2.21),
    ("NSANGSSLNGTNAKIPQ [SSN3]", 2.38),
    ("ASLNALKESIKNSTSSM [RPN1]", 3.07),
    ("NLERLRSDLQSKIQEIE [YIL149C/MLP2]", 3.08),
]

====

Test: protein stability index of a GFP-peptide fusion (yeast GPS) (PSI 1-4); higher = more stable; sorted into four equal gates, so the index is relative within each strain
Conditions: pdr5∆
Returns t if the recorded protein stability index is greater than or equal to 3, and f otherwise.

# MONOMER SEQUENCE, ASSIGNED CATEGORY
data = [
    ("RARGPMQVLTRQPVEGR [RPB2]", "f"),
    ("RITDASLFQLSKLGKNL [GRR1]", "f"),
    ("EPAEANEENDLDVDPAK [RPB2]", "t"),
    ("KKEKLKQENSTLLKKAN [RPC82]", "f"),
    ("TLGNALRYVIMKNPDVE [RPC19]", "f"),
    ("ELKYQRSLRATAEERVG [RPL15A]", "f"),
]

====

Documented protein stability index across a set of sequences
Experiment: protein stability index of a GFP-peptide fusion (yeast GPS) (PSI 1-4); higher = more stable; sorted into four equal gates, so the index is relative within each strain
Settings: doa10∆

# MONOMER SEQUENCE, protein stability index
data = [
    ("TDKIGRSVPAPGKGILT [FAS2]", 2.95),
    ("VEASRRRRSSTNKSKRP [MED1]", 3.19),
    ("FNGIENQSAYEWNGKSF [ISW2]", 3.09),
    ("PEQGEEPMKQLNATKIS [YAR002W/NUP60]", 3.15),
    ("GELRDYIEDFLLVIGGN [YJR042W/NUP85]", 2.23),
    ("NVTGGKAANFIQNQSPQ [SWI1]", 2.77),
    ("LHLAVGKKWFEVSQFLI [NAS6]", 2.12),
    ("IVNHEQDLPKINDKRAN [SRB4]", 3.28),
    ("LDDFGEEELFEVTKEED [RRP43]", 2.92),
    ("NDDFSEVFEFKTFNKIQ [BRR2]", 2.01),
    ("GLGYVFEFQYLTIGVKF [SRB5]", 1.15),
    ("RELTKNILWRIADKTTY [SIR4]", 3.02),
    ("QNDTPMFKLGNFESPVL [YLR018C/POM34]", 2.08),
    ("LFIGLFTRPLFVLLEIE [YCS4]", 1.82),
    ("IDNYITNSVRLFEVNPS [SRP21]", 2.61),
    ("DLRIRIKLDIVVGQNQL [SNF5]", 1.38),
    ("EAMMLKEEGLQQFNLHE [MED1]", 2.97),
    ("SEVGDAFIFGLQDELKE [SMC3]", 3.2),
]

====

Test: protein stability index of a GFP-peptide fusion (yeast GPS) (PSI 1-4); higher = more stable; sorted into four equal gates, so the index is relative within each strain
Conditions: san1∆
protein stability index reference

# MONOMER SEQUENCE, protein stability index
measured = [
    ("ELSVTGSAINHHRIFDS [YMR129W/POM152]", 2.91),
    ("LLVDIQKYNQIQKQIET [SMC2]", 2.2),
    ("DVYASKVRLNASEREEL [PRP8]", 2.39),
    ("AIMSKSSLEELLLKDQQ [ECM29]", 2.83),
    ("FCGKKTVKRGAAGIWTC [RPL43A]", 2.19),
    ("PSRQFDHYESNQLVAKL [SRB8]", 2.98),
    ("CNNINKGLKENDVAVEK [BRR2]", 3.25),
    ("ARKGLTPSQIGVLLRDA [RPS13]", 2.09),
    ("SPISDSRDELIRLAKTL [RPN10]", 2.37),
    ("QGEEEELIALNLSEARL [RPB4]", 3.22),
    ("NIPQQQQMQPPNSSANN [GAL11]", 2.85),
    ("DLLDMIQFGAKNMFEKK [ISW2]", 3),
    ("ARKHKLKTLVQGPRSYF [RPS27A]", 2.27),
    ("ASRHGQKGTIGITYRRE [RPB2]", 2.39),
    ("TAQKYPIYTGDGWVKLT [YMR153W/NUP53]", 1.62),
    ("ILHVRAQYCYKNGLYQE [SRP72]", 3.1),
    ("AELVQKYIGEGSRMVRE [RPT6]", 2.65),
    ("VSFNGFKLPKKFPPPTP [BRR2]", 2.8),
    ("ESLQKRELLKSQVEDFT [SIR3]", 3.12),
    ("QNDTPMFKLGNFESPVL [YLR018C/POM34]", 2.62),
    ("FQIDNDNIRYATALQTC [SMC2]", 1.45),
    ("FNTPFANTGGQDKIELS [SNF2]", 1.55),
    ("SLRTPIAPKITPKVVRS [SEC65]", 2.87),
    ("TSDLLGSHLSETEFPPF [ECM29]", 3.17),
    ("VIRMVVLTAAGVERLIF [PRE3]", 2.42),
    ("EDNYNPKMQWSLQDNSA [RPN4]", 3.22),
    ("NAIFLSSEQDYSTLKEL [YCG1]", 2.18),
    ("VPQSEETRAELSQLCAV [RPO21]", 2.79),
    ("DKKQQTIDEQSQISPEK [RPN1]", 3.4),
    ("EEEESILIAMQPEDLEP [RPB2]", 2.33),
    ("DDTKNQDSMSKGTGEES [YGR119C/NUP57]", 3.21),
    ("LTFNSKNIQSKDSYINA [FAS2]", 2.73),
    ("PNEHPGAKYVIRDSGDR [RPO21]", 2.7),
    ("YQRSKRVNNPNVSLIKI [RPL33A]", 2.93),
    ("QKKILSIRLKVPPTIAQ [RPL8A]", 1.5),
    ("SRGIVIGSGAMSPLECR [RPP1]", 2.12),
    ("EGHLAEIRAKEYKTSSD [SRB2]", 3.18),
    ("KGTNDEGTSISVHLIEC [YCS4]", 2.69),
    ("GDNEYITLRTSGELLQG [MCD1]", 3.16),
    ("NVMTPREQYETQVALNE [UBP6]", 2.83),
    ("FLLTQSKVSIEQRKEAA [RPN7]", 2.42),
    ("GKALVHHYEECAERVKI [QCR6]", 3.25),
    ("ISENTFPNGFKNFENGP [RPC34]", 2.91),
    ("NVFGQDNEDSDNLFGET [SWI3]", 3.23),
    ("LEIDNKDSVTECSKDMK [SIR4]", 3.4),
    ("TEKLKISPESVFGTLGE [SMC3]", 2.09),
    ("AKYHAKLNKKLQHLRSR [SRP68]", 3.26),
    ("GKHSIGLIWYLLAREVL [RPS0A]", 1.65),
    ("DDDDEDDDEIVMPVPNV [SKP1]", 3.08),
    ("KKEEKLNIGKNFAHSDS [SIR4]", 3.12),
]

====

Assay: protein stability index of a GFP-peptide fusion (yeast GPS) (PSI 1-4); higher = more stable; sorted into four equal gates, so the index is relative within each strain
Conditions: ubr1∆
Criterion: protein stability index meeting or surpassing 3. Met: t. Not met: f.

# MONOMER SEQUENCE, ASSIGNED CATEGORY
measured = [
    ("YILEAEAAAKEKDELDN [QCR7]", "t"),
    ("VDSRATAGNWVASQTVK [PRE2]", "t"),
    ("LMLEDAVTEREVLVTPG [MCD1]", "f"),
    ("LVVYAEDNGIVKALRNV [RPL4A]", "f"),
    ("SLDTLELESITESITHD [NUT1]", "f"),
    ("FKDVEHISFNFSMLQMA [BRR2]", "f"),
    ("HHELIKVKHDSQPFIKF [SSN2]", "f"),
    ("KLDLFKYFTELSHYIRQ [MED1]", "f"),
    ("PAAESKIFTPNLLQISA [SNF5]", "f"),
    ("LRSDFYILANHYLSRVL [YJL039C/NUP192]", "f"),
    ("KVLARQQLQVLARYLKM [FAS2]", "f"),
    ("YKAKIKELENNLERLRS [YIL149C/MLP2]", "t"),
    ("TKQASSFSFLNRADGTG [YLR335W/NUP2]", "f"),
    ("MDLLKFSSLAISEINFL [CSI1]", "f"),
    ("AGEFGLKNKKEIYRISF [RPS9A]", "f"),
    ("IFNSNKAKIIPGNGKHA [SIR4]", "f"),
]
